target: K18 tau fragment bearing the P301L mutation (K18PL) (Homo sapiens, UniProt P10636, P618L); test: Heparin-induced tau K18PL fibrillization assay monitored by thioflavine-T
Sequence (P10636 561-689 P618L): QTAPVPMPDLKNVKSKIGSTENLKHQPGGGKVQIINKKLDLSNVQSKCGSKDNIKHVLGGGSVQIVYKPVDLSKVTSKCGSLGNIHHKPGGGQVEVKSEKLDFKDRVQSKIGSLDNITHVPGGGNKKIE
pIC50 listing for selected compounds.
Remember, pIC50 is on a log scale: it is -log10 of the molar concentration.

CCNC(=O)c1nn(-c2ccc(Cl)cc2)c(=O)c2c(N)scc12
5.16
Nc1scc2c(C(=O)O)nn(-c3ccc(Cl)cc3)c(=O)c12
5.27

In the following, a different compound is considered.
Entry CC(C)OC(=O)c1nn(-c2ccc(Cl)cc2)c(=O)c2c(N)scc12 ; pIC50 = 5.80

---

test: Brain and plasma levels 1 h after i.p. administration; assay type: in vivo; conditions: female, B6C3F1, mouse, brain, ip, 5 mg/kg, Brain level, mice, 5 mg/kg i.p.
EXPERIMENTAL_ENDPOINT: concentration at 1 h

Nc1scc2c(C(=O)NC3CC3)nn(-c3ccc(Cl)cc3)c(=O)c12
> 800 ng/g
CC(C)NC(=O)c1nn(-c2ccc(Cl)cc2)c(=O)c2c(N)scc12
> 800 ng/g

In the following, a different compound is considered.
Entry CCNC(=O)c1nn(-c2ccc(Cl)cc2)c(=O)c2c(N)scc12 ; concentration at 1 h = > 800 ng/g
